Biological target: Solute carrier organic anion transporter family member 1B3 (Homo sapiens)
Settings: chinese hamster, cho, 10 µM
endpoint label: residual activity (%)
The answer is to be given in %; state only the numeric part.

Below, each entry is followed by its recorded residual activity result.
{"molecule": "Cc1ccc(C)c(OCCCC(C)(C)C(=O)O)c1", "residual activity, %": 71.16}
{"molecule": "CCOP(=S)(OCC)SCCSCC", "residual activity, %": 105.1}
{"molecule": "Cl.O=C(O)C1=CCNCC1 [ISOGUVACINE HYDROCHLORIDE]", "residual activity, %": 103.5}

Now look at this entry.
Reported residual activity for COC1=C(OC)C(=O)C(C/C=C(\C)CC/C=C(\C)CC/C=C(\C)CC/C=C(\C)CC/C=C(\C)CC/C=C(\C)CC/C=C(\C)CC/C=C(\C)CC/C=C(\C)CCC=C(C)C)=C(C)C1=O : what is it? 137.7

###

Biological target: Solute carrier organic anion transporter family member 1B1 (Homo sapiens)
Details: chinese hamster, cho, 10 µM
endpoint label: residual activity (%)
The answer is to be given in %; state only the numeric part.

{"compound": "CC(=O)O[C@H]1CC[C@]2(C)[C@H]3CC=C4[C@@H]5CC(C)(C)CC[C@]5(C)CC[C@@]4(C)[C@]3(C)CC[C@H]2C1(C)C [beta-AMYRIN ACETATE]", "residual activity, %": 113}
{"compound": "COc1cc2c3cc1Oc1cc(ccc1O)C[C@@H]1c4c(cc(OC)c(O)c4Oc4ccc(cc4)C[C@@H]3N(C)CC2)CC[N+]1(C)C.[Cl-]", "residual activity, %": 99.28}
{"compound": "CC(=O)O[C@H]1CC[C@@]2(C)C(=CC(=O)[C@H]3[C@@H]4CC[C@H]([C@H](C)CCCC(C)C)[C@@]4(C)CC[C@@H]32)C1 [7-OXOCHOLESTERYL ACETATE]", "residual activity, %": 97.51}

Can you look up residual activity on Solute carrier organic anion transporter family member 1B1 (Homo sapiens) for Cc1cccc(CN2CCN(C(c3ccccc3)c3ccc(Cl)cc3)CC2)c1.Cl.O (centres undefined) ? 80.22

Can you look up residual activity on Solute carrier organic anion transporter family member 1B1 (Homo sapiens) for CC(=O)N[C@@H](Cc1c[nH]c2ccccc12)C(=O)O ? 63.36

Can you look up residual activity on Solute carrier organic anion transporter family member 1B1 (Homo sapiens) for C=C1[C@H]2CC[C@@]3(C)[C@H](c4ccoc4)OC(=O)C[C@]13O[C@H]1C[C@H](O)C(C)(C)[C@H](CC(=O)OC)[C@]12C ? 50.95

Can you look up residual activity on Solute carrier organic anion transporter family member 1B1 (Homo sapiens) for C=C1c2cccc(O)c2C(=O)C2=C(O)[C@]3(O)C(=O)C(C(N)=O)=C(O)[C@@H](N(C)C)[C@@H]3[C@@H](O)[C@H]12.Cl [METHACYCLINE HYDROCHLORIDE] ? 110.8

Can you look up residual activity on Solute carrier organic anion transporter family member 1B1 (Homo sapiens) for COC(=O)[C@H](O)[C@H]1C(C)(C)[C@H](OC(C)=O)[C@@H]2CC3=C4CC(=O)O[C@@H](c5ccoc5)[C@]4(C)CC[C@@H]3[C@@]1(C)C2=O [SWIETENOLIDE-3-ACETATE] ? 54.05

Can you look up residual activity on Solute carrier organic anion transporter family member 1B1 (Homo sapiens) for C=N[C@@H](C(=O)N[C@@H]1C(=O)N2[C@@H]1SC(C)(C)[C@@H]2C(=O)[O-])c1ccccc1.[Na+] ? 110.5

Can you look up residual activity on Solute carrier organic anion transporter family member 1B1 (Homo sapiens) for COc1cccc(O)c1O ? 98.75

Can you look up residual activity on Solute carrier organic anion transporter family member 1B1 (Homo sapiens) for CC(=O)O[C@H]1CC[C@@]2(C)C(=CC[C@H]3[C@@H]4CC[C@H]([C@H](C)CCCC(C)C)[C@@]4(C)CC[C@@H]32)C1 ? 89.8

Can you look up residual activity on Solute carrier organic anion transporter family member 1B1 (Homo sapiens) for COc1cc2c(cc1OC)C(=O)OC2 ? 92.42

Can you look up residual activity on Solute carrier organic anion transporter family member 1B1 (Homo sapiens) for CC(=O)Oc1cc2c(c(C)c1OC(C)=O)CC1OC13[C@@]2(C)CC[C@@]1(C)C2C[C@](C)(C(=O)O)CC[C@]2(C)CC[C@]31C (some centres undefined) ? 63.61

Can you look up residual activity on Solute carrier organic anion transporter family member 1B1 (Homo sapiens) for CCOP(=S)(OCC)SCCSCC ? 113.3

###

Biological target: UniProt:Q9NPD5
Conditions: chinese hamster, cho, 10 µM
Reported residual activity values are given for each entry in this list.
The answer is to be given in %; state only the numeric part.

Below, each entry is followed by its recorded residual activity result.
{"compound": "OC[C@@H](O)C(O)[C@H](O)CO", "observed value": 118.8}
{"compound": "O=C(/C=C/c1ccc(O)c(O)c1)O[C@@H]1C[C@](O)(C(=O)O)C[C@@H](O)[C@H]1O", "observed value": 103.1}
{"compound": "CC(=O)Oc1ccc2c(c1)CCC1C2CC[C@]2(C)C(=O)CCC12 (stereo partly specified) [ESTRONE ACETATE]", "observed value": 109.5}
{"compound": "CC(=O)Nc1ccc(O)cc1", "observed value": 96.68}
{"compound": "Cn1c(=O)[nH]c2ncn(C)c2c1=O", "observed value": 88.58}

Reported residual activity for CN1CCN(C2=Nc3cc(Cl)ccc3Nc3ccccc32)CC1 : what is it? 93.38

###

Target: Solute carrier organic anion transporter family member 1B3 (Homo sapiens, UniProt Q9NPD5)
Sequence (Q9NPD5 whole entry): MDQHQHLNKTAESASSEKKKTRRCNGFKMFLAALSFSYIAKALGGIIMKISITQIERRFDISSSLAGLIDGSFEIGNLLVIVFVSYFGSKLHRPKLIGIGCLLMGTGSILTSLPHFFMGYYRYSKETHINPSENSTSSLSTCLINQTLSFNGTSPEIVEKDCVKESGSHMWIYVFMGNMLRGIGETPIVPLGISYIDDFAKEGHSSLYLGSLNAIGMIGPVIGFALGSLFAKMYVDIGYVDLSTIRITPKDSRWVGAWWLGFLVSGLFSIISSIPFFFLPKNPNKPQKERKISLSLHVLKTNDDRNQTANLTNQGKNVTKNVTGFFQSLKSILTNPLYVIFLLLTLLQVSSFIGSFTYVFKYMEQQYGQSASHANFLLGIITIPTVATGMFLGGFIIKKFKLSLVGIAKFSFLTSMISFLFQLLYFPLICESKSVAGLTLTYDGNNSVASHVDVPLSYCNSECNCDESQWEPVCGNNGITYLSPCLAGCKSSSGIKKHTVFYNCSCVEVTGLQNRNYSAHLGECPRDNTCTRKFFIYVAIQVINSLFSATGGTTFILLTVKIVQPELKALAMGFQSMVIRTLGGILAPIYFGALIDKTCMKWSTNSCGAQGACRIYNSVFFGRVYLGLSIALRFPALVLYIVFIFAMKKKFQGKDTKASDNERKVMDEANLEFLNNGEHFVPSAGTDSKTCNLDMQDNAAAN
Conditions: chinese hamster, cho, 10 µM
Starred links: 1 amine or outer side, 2 acyl side, 3 side chain; linkers in the order of their positions; H or OH if unused. Positions of bridges follow the written chain, without caps; N, C: chain ends. Non-standard residues stand in square brackets, D forms with d. Residues, ends and D or L forms follow the SMILES beside them. Chains are numbered I, II in the order given. Actinocin(9to1) = Cc1c2oc3c(C)ccc(C(=O)[*:1])c3nc-2c(C(=O)[*:2])c(N)c1=O; NMeV = CN[C@H](C(=O)O)C(C)C; Sar = CNCC(=O)O
Reported residual activity values are given for each entry in this list.
The answer is to be given in %; state only the numeric part.

{"compound": "Cc1c2oc3c(C)ccc(C(=O)N[C@@H]4C(=O)N[C@H](C(C)C)C(=O)N5CCC[C@H]5C(=O)N(C)CC(=O)N(C)[C@@H](C(C)C)C(=O)O[C@@H]4C)c3nc-2c(C(=O)N[C@@H]2C(=O)N[C@H](C(C)C)C(=O)N3CCC[C@H]3C(=O)N(C)CC(=O)N(C)[C@@H](C(C)C)C(=O)O[C@@H]2C)c(N)c1=O [DACTINOMYCIN] (I: T[dV]P[Sar][NMeV] / II: T[dV]P[Sar][NMeV]; ester I:1-I:C, II:1-II:C; linker I:N-II:N via Actinocin(9to1))", "units label": "%", "residual activity": 85.16}
{"compound": "Cc1cc(O)cc(=O)o1", "units label": "%", "residual activity": 97.35}
{"compound": "CCCC1O[C@@H]2C[C@H]3[C@@H]4CCC5=CC(=O)C=C[C@]5(C)[C@H]4[C@@H](O)C[C@]3(C)[C@]2(C(=O)CO)O1 (stereo partly specified) [BUDESONIDE]", "units label": "%", "residual activity": 73}

Can you look up residual activity on Solute carrier organic anion transporter family member 1B3 (Homo sapiens, UniProt Q9NPD5) for COc1c(C(=O)O)ccc2c1CCC(C)(C)O2 [DIHYDRO-beta-TUBAIC ACID] ? 102.8

Can you look up residual activity on Solute carrier organic anion transporter family member 1B3 (Homo sapiens, UniProt Q9NPD5) for COc1cc2c(c(OC)c1OC)-c1ccc(=O)c(O)cc1[C@@H](NC(C)=O)CC2 ? 109.6

Can you look up residual activity on Solute carrier organic anion transporter family member 1B3 (Homo sapiens, UniProt Q9NPD5) for COC(=O)[C@]1(C)CC[C@]2(C)CC[C@]3(C)C4=CCc5c(cc(O)c(O)c5C)[C@]4(C)CC[C@@]3(C)[C@@H]2C1 ? 86.64

###

Biological target: Solute carrier organic anion transporter family member 1B1 (Homo sapiens, UniProt Q9Y6L6)
Sequence (Q9Y6L6 whole entry): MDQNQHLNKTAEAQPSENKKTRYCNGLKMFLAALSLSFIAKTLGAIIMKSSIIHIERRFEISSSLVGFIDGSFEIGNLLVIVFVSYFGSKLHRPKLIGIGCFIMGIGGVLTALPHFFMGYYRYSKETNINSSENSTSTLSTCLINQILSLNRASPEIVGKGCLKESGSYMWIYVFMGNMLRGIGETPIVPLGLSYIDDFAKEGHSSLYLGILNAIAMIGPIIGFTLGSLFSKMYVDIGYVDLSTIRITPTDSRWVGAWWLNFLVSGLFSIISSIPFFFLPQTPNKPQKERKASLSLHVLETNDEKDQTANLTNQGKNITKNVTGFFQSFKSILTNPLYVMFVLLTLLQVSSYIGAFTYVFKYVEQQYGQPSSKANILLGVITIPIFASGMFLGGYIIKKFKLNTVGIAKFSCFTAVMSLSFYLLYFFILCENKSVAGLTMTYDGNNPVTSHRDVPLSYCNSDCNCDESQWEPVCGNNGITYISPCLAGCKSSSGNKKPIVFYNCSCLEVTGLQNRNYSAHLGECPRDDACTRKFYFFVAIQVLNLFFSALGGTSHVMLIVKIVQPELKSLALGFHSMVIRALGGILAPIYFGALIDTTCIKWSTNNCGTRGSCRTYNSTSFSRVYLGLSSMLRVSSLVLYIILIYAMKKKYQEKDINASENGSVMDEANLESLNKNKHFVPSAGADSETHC
Conditions: chinese hamster, cho, 10 µM
Residues, ends and D or L forms follow the SMILES beside them.
Binary call on residual activity with cut-off 80%: strictly below means true, and equality or higher means false.

Examples with answers:
{"compound": "CC(C)C[C@H](N)C(=O)N[C@@H](C)C(=O)O [LEU-ALA] (H-Leu-Ala-OH)", "class label": "false"}
{"compound": "C[C@@H]1CC[C@]2(NC1)O[C@H]1C[C@H]3[C@@H]4CC=C5C[C@@H](O)CC[C@]5(C)[C@H]4CC[C@]3(C)[C@H]1[C@@H]2C [SOLASODINE]", "class label": "false"}
{"compound": "O=C(O)[C@@H](O)[C@H](O)[C@H](O)[C@@H](O)C(=O)O [MUCIC ACID]", "class label": "false"}
{"compound": "COc1cc(-c2coc3cc(OCc4ccccc4)c(OC)c(O)c3c2=O)cc(O)c1OC [IRIGENIN, 7-BENZYL ETHER]", "class label": "true"}

Dear colleague, could you confirm whether residual activity of O=C1c2c(O)cccc2Cc2cccc(O)c21 [ANTHRALIN] falls below 80%? Thanks. false

Dear colleague, could you confirm whether residual activity of CN1Cc2c(N)cccc2C(c2ccccc2)C1.O=C(O)/C=C\C(=O)O (stereo not given) [NOMIFENSINE MALEATE] falls below 80%? Thanks. true
